- testSummary: binders from COS7 lysate, DM2A8 probe, primary screen, torsin A project, cell lysate, small-molecule microarray, fluorescence 635/667 (AID 1065)
- testContext: higher = more signal, COS7 lysate expressing mutant human TOR1A
In this section, each of the compounds is paired with its reported composite z-score.
Could you keep your reply to the number by itself?

Some compounds with recorded composite z-score:
COC(=O)C[C@H]1O[C@@H](CCc2ccccc2)[C@@H](C)[C@@H]1[Si](C)(C)c1ccc(OC)cc1
-0.724
CCOC(=O)C[C@H]1[C@H](OC(=O)c2cc3ccccc3oc2=O)[C@@H](NC(=O)CC(C)C)c2cc(OCCCO)ccc2N1C(=O)c1ccccc1
0.478
[N-]=[N+]=NCc1ccccc1[C@@H]1OC(c2ccc(OCCCO)cc2)=N[C@]1(CCS(=O)(=O)c1ccccc1)C(=O)N1CCOCC1
1.17
COCC(=C=CC[C@H](O)c1ccccc1OCCO)CCO
0.32
CN(C)CCCCCCNC(=O)[C@@H]1C[C@@H]2C(=O)N3CCC[C@H]3C(=O)N2[C@@H]1c1ccc(O)cc1
1.9

Query: Which composite z-score value belongs to "COc1ccc(C(=O)Nc2ccc(CN3C(=O)[C@]4(O[C@H](CC(=O)N5CCC[C@H]5CO)[C@@H]([Si](C)(C)c5ccc(OC)cc5)[C@@H]4C)c4ccccc43)cc2)cc1" ?
Result: 0.355

Query: Which composite z-score value belongs to "O=C1[C@H]2C=C(I)[C@H](C[C@@H]2OCCCCO)[C@@]12CO2" ?
Result: 2.01
